Test system: MRSA ATCC BAA-1556
Assay: MIC against methicillin resistant Staphylococcus aureus (MRSA)
Settings: read-out: MRSA MIC, ATCC BAA-1556
outcome_measure: MIC
Could you give the number and then its unit, please?

Some solved entries appear below for comparison.
[[record]]
compound = "Cn1nnc(-c2ccc(-c3ccc(N4C[C@H](CO)OC4=O)cc3F)cn2)n1 [Tedizolid, reference compound]"
meas_value = "0.617 µg/mL"

[[record]]
compound = "Cl.Cl.NCCn1nnc(-c2ccc(-c3ccc(N4C[C@H](CN)OC4=O)cc3F)cn2)n1 [AKG-29]"
meas_value = "50 µg/mL"

[[record]]
compound = "CCN(CC)CCCn1nnc(-c2ccc(-c3ccc(N4C[C@H](CNC(C)=O)OC4=O)cc3F)cn2)n1 [AKG-40]"
meas_value = "1.85 µg/mL"


Consider now this further compound.
I have this compound here, CC(=O)NC[C@H]1CN(c2ccc(-c3ccc(-c4nnn(CCN(C)C)n4)nc3)c(F)c2)C(=O)O1 [AKG-38] , and I need its recorded MIC.
1.85 µg/mL

* * *

Test system: M.tb H37Rv
Assay: Broth microdilution MIC with Alamar blue endpoint (MABA) / OD600
Type: cell-based, Mycobacterium tuberculosis
Details: Mycobacterium tuberculosis, H37RV, read-out: Mycobacterium tuberculosis MIC, H37Rv
MIC for assorted compounds
State just the number; it will be interpreted in µg/mL.

Below are worked cases with known answers.
[[record]]
molecular_string = "Cl.Cn1nnc(-c2ccc(-c3ccc(N4C[C@H](CN)OC4=O)cc3F)cn2)n1"
meas_value = 0.06

[[record]]
molecular_string = "CN(C)CCCn1nnc(-c2ccc(-c3ccc(N4C[C@H](CN)OC4=O)cc3F)cn2)n1"
meas_value = 0.125

[[record]]
molecular_string = "CN(C)CCNc1ccc(-c2ccc(N3C[C@H](CO)OC3=O)cc2F)cn1"
meas_value = 4

[[record]]
molecular_string = "Cl.Cl.NCCn1nnc(-c2ccc(-c3ccc(N4C[C@H](CN)OC4=O)cc3F)cn2)n1"
meas_value = 0.125


Note: attention shifts to another entry.
Data request, read-out MIC, for CN(C)CCn1nnc(-c2ccc(-c3ccc(N4C[C@H](CN)OC4=O)cc3F)cn2)n1.Cl
0.015

* * *

Experiment: in vivo
Details: male, Sprague-Dawley, rat, po, 50 mg/kg
outcome_measure: AUC(0-t) (µg·h/mL)
Express your answer in µg·h/mL, writing the number without its unit.

What AUC(0-t) value was documented for this compound, CC(=O)NC[C@H]1CN(c2ccc(N3CCOCC3)c(F)c2)C(=O)O1 ?
282

* * *

Test: in vivo
Details: male, Sprague-Dawley, rat, po, 50 mg/kg
outcome_measure: half-life

Item CC(=O)NC[C@H]1CN(c2ccc(N3CCOCC3)c(F)c2)C(=O)O1 has what recorded half-life?
11.9 h

* * *

Tested on: African green monkey kidney (Vero; ATCC # CCL81) cells
Assay: In vitro cytotoxicity (PrestoBlue cell viability), Vero
Assay type: cell-based
Settings: Chlorocebus sabaeus, Vero, 72 h, read-out: Cell viability IC50, VERO
Lab note: anything with IC50 below 100 µg/mL is marked MET; values at 100 µg/mL or higher are marked NOT MET.

Report whether reported IC50 is lower than 100 µg/mL (strictly) for Cl.Cl.NCCn1nnc(-c2ccc(-c3ccc(N4C[C@H](CN)OC4=O)cc3F)cn2)n1
NOT MET

Similarly, CN(C)CCCn1nnc(-c2ccc(-c3ccc(N4C[C@H](CN)OC4=O)cc3F)cn2)n1 ?
NOT MET

Also CCN(CC)CCNC[C@H]1CN(c2ccc(-c3ccc(-c4nnn(C)n4)nc3)c(F)c2)C(=O)O1 , if possible.
NOT MET

Please answer likewise for CN(C)CCNc1ccc(-c2ccc(N3C[C@H](CO)OC3=O)cc2F)cn1
MET

Consider next the compound CN(C)CCn1nnc(-c2ccc(-c3ccc(N4C[C@H](CN)OC4=O)cc3F)cn2)n1.Cl in the same way.
MET

Please answer likewise for Cl.Cn1nnc(-c2ccc(-c3ccc(N4C[C@H](CN)OC4=O)cc3F)cn2)n1
MET

* * *

Selectivity Index (SI) Erd/VERO values, listed per item
Test system: M. Tuberculosis Erdman or H37Rv vs VERO or HepG2 cells
Assay: Selectivity Index (mammalian cell IC50 / bacterial MIC)
Set-up: species or system Mycobacterium tuberculosis

Solved entries (count: 6):
[[record]]
molecular_string = "Cl.NCCn1nnc(-c2ccc(-c3ccc(N4C[C@H](CO)OC4=O)cc3F)cn2)n1"
meas_value = ">1000"

[[record]]
molecular_string = "CCN(CC)CCCn1nnc(-c2ccc(-c3ccc(N4C[C@H](CNC(C)=O)OC4=O)cc3F)cn2)n1"
meas_value = ">250.0"

[[record]]
molecular_string = "CCN(CC)C[C@H]1CN(c2ccc(-c3ccc(-c4nnn(C)n4)nc3)c(F)c2)C(=O)O1"
meas_value = "<8.5"

[[record]]
molecular_string = "CCN(CC)CCCNc1ccc(-c2ccc(N3C[C@H](CO)OC3=O)cc2F)cn1"
meas_value = "<19.5"

[[record]]
molecular_string = "CCN(CC)CCC(=O)OC[C@H]1CN(c2ccc(-c3ccc(-c4nnn(C)n4)nc3)c(F)c2)C(=O)O1"
meas_value = ">500"

[[record]]
molecular_string = "CN(C)C[C@H]1CN(c2ccc(-c3ccc(-c4nnn(C)n4)nc3)c(F)c2)C(=O)O1"
meas_value = "<14.1"


// Selectivity Index (SI) Erd/VERO lookup, key: CCN(CC)CCNc1ccc(-c2ccc(N3C[C@H](CO)OC3=O)cc2F)cn1
<11.7

Source of measurements: patent US20230348447A1
